Measured values drawn from ChEMBL document CHEMBL1144810 for this set.

experiment: Displacement of [125]Ang4 from endogenous IRAP in CHOK1 cell membrane in presence of EDTA and 1,10-phenanthroline; assay type: cell membranes, Cricetulus griseus; conditions: cho-k1
*1 amine or outer side, *2 acyl side, *3 side chain or, on linkers, in order; H or OH if unused. Where a SMILES comes first, the peptide text is derived from it. [ ]: non-standard residue; d: D form. β2hVal(2R) = CC(C)[C@H](CN[*:1])C(=O)[*:2]; β3hF = N[C@H](CC(=O)O)Cc1ccccc1
The following compounds are shown together with reported Log Ki values.
No unit in the answer, please; the number alone is enough.

Past entries and their recorded results:
CC[C@H](C)[C@H](NC(=O)[C@H](Cc1ccc(O)cc1)NC(=O)[C@@H](N)C(C)C)C(=O)N[C@@H](Cc1cnc[nH]1)C(=O)N1CCC[C@H]1C(=O)N[C@H](CC(=O)O)Cc1ccccc1	-8.24
CC[C@H](C)[C@H](NC(=O)[C@H](Cc1ccc(O)cc1)NC(=O)[C@@H](CN)C(C)C)C(=O)N[C@@H](Cc1cnc[nH]1)C(=O)N1CCC[C@H]1C(=O)N[C@@H](Cc1ccccc1)C(=O)O ({β2hVal(2R)}-YIHPF-OH)	-7.58
CC[C@H](C)[C@H](NC(=O)[C@H](Cc1ccc(O)cc1)NC(=O)[C@@H](CN)C(C)C)C(=O)N[C@@H](Cc1cnc[nH]1)C(=O)N1CCC[C@H]1C(=O)N[C@H](CC(=O)O)Cc1ccccc1 ({β2hVal(2R)}-YIHP[β3hF]-OH)	-7.7

Next compound, Log Ki to be filled in.
Could you share which Log Ki value was measured for "CC[C@H](C)[C@H](NC(=O)[C@H](Cc1ccc(O)cc1)NC(=O)[C@@H](N)C(C)C)C(=O)N[C@@H](Cc1cnc[nH]1)C(=O)N1CCC[C@H]1C(=O)N[C@@H](Cc1ccccc1)C(=O)O" ? -8.1

###

target: Aminopeptidase N (Homo sapiens); assay: Inhibition of human recombinant APN expressed in HEK293 cells
Sequence (P15144 whole entry): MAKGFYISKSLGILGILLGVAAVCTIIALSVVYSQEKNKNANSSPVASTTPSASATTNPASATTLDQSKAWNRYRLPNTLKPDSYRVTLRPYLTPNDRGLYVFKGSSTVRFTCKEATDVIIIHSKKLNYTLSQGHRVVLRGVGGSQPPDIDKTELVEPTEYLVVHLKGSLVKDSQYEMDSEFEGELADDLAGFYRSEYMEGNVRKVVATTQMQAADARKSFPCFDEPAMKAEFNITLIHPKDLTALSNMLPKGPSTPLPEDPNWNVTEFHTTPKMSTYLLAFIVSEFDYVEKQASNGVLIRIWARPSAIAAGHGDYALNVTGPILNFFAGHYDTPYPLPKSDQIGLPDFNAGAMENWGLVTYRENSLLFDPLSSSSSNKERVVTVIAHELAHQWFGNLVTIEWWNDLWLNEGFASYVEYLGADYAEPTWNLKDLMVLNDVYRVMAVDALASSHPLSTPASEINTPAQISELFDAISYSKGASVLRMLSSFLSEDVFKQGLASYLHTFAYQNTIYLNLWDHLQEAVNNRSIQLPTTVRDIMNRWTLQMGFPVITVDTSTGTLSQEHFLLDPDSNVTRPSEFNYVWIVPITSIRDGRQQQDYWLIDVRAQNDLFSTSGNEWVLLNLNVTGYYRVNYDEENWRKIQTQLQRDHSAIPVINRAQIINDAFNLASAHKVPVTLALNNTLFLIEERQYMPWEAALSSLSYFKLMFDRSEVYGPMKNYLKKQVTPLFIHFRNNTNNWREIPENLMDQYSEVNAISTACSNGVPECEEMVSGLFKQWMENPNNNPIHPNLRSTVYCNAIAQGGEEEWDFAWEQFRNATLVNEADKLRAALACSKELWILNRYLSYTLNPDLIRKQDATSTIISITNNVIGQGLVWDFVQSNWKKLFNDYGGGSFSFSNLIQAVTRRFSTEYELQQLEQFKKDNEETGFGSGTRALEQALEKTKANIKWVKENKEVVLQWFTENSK
value_type: Ki

Could you share which Ki value was measured for "CC[C@H](C)[C@H](NC(=O)[C@H](Cc1ccc(O)cc1)NC(=O)C[C@H](N)C(C)C)C(=O)N[C@@H](Cc1cnc[nH]1)C(=O)N1CCC[C@H]1C(=O)N[C@@H](Cc1ccccc1)C(=O)O" ? > 100 µM
